Item-by-item account of ELISA reading
biological target: T1, soluble KDR extracellular domain (ECD) (Calbiochem) (human, UniProt P35968 20-764); assay: High Antigen ELISA, KDR coat 500 ng/mL, supernatant 1:2025
T1 construct: extracellular domain; Bought protein; also called KDR-ECD; VEGF Receptor 2 D1-7, Cat. #676490
T1 sequence (P35968 20-764): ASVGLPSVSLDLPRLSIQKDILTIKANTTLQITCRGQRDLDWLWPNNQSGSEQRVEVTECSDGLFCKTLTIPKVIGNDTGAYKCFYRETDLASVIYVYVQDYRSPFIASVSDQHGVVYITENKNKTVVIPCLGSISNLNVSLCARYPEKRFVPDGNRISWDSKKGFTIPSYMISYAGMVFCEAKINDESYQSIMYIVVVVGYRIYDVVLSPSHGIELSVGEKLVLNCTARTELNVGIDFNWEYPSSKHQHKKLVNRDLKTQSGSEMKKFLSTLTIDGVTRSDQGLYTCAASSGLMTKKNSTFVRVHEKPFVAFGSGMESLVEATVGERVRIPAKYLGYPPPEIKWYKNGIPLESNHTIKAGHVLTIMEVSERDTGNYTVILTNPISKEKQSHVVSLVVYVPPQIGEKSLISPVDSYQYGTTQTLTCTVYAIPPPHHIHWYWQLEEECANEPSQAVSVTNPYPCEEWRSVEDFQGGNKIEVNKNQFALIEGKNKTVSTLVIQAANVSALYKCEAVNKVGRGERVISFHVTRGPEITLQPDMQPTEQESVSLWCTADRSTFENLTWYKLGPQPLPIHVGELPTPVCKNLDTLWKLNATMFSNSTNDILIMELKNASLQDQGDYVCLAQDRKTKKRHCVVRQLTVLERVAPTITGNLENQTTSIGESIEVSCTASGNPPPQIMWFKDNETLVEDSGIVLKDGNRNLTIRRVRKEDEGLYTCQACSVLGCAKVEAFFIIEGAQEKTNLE

binder	ELISA reading
29H3 (antibody, V domains shown, Fully human mAb from XenoMouse hybridoma, tested as hybridoma supernatant) VH: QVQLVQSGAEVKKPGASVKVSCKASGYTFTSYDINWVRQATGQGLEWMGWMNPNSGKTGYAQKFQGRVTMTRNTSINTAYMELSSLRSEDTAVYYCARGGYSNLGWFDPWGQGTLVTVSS VL: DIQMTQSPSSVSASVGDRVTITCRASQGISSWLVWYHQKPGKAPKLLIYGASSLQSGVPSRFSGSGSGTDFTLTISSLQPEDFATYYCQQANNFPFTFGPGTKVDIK	1.42

Asked: Reported ELISA reading, binder 30F6 (antibody, V domains shown, Fully human mAb from XenoMouse hybridoma, tested as hybridoma supernatant) VH: QVQLVESGGGVVQPGRSLRLSCAASGFTFSTYGMHWVRQAPGKGLEWVAVIWYDGSNKYYADSVKGRFTISRDNSKNTLYLQMNSLRAEDTAVYYCACSYWNDDYYYGMDVWGQGTTVTVSS VL: DIQMTQSPSSLSASVGDRVIITCRASQNISSYLIWYQQKPGKAPNLLIHTTSSLQRGVPSRFSGSGSGTDFTLTISSLQPEDFATYYCQQSYSAPLTFGGGTKVEIK : ____
Given back: 0.35

Cited source for all entries: patent US20100260765A1
